Tested on: 186277-243-T-J2-PDC complex spheroid viability;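 also: 7 day exposure to compounds; 100% = DMSO vehicle control viability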
Assay: Anticancer human tumor 186277-243-T-J2-PDC patient-derived colon adenocarcinoma cell line growth inhibition
Conditions: second compound 10 µM; first compound 0.03 µM; active compounds read low
As shown below, each of these compounds has a reported viability, T/C value.

[
  {
    "compound": "Nc1ccn(C2OC(CO)C(O)C2(F)F)c(=O)n1 (stereo unspecified) + NC1CC1c1ccc(-c2cccc(O)c2)cc1",
    "viability, T/C": "11.2%"
  },
  {
    "compound": "CCN(c1cc(-c2ccc(CN3CCOCC3)cc2)cc(C(=O)NCc2c(C)cc(C)[nH]c2=O)c1C)C1CCOCC1 + NC1CCC(NC2CC2c2ccccc2)CC1",
    "viability, T/C": "94.8%"
  },
  {
    "compound": "Nc1ccccc1NC(=O)c1ccc(CNC(=O)OCc2cccnc2)cc1 + NC1CC1c1ccc(-c2cccc(O)c2)cc1",
    "viability, T/C": "97.3%"
  },
  {
    "compound": "CCN(c1cc(-c2ccc(CN3CCOCC3)cc2)cc(C(=O)NCc2c(C)cc(C)[nH]c2=O)c1C)C1CCOCC1 + NC1CC1c1ccc(-c2cccc(O)c2)cc1",
    "viability, T/C": "99.7%"
  },
  {
    "compound": "NS(=O)(=O)OCC1CC(n2ccc3c(NC4CCc5ccccc54)ncnc32)CC1O (stereo unspecified) + NC1CC1c1ccc(-c2cccc(O)c2)cc1",
    "viability, T/C": "90.6%"
  },
  {
    "compound": "Nc1ccccc1NC(=O)c1ccc(CNC(=O)OCc2cccnc2)cc1 + NC1CCC(NC2CC2c2ccccc2)CC1",
    "viability, T/C": "98.7%"
  },
  {
    "compound": "NS(=O)(=O)OCC1CC(n2ccc3c(NC4CCc5ccccc54)ncnc32)CC1O (stereo unspecified) + NC1CCC(NC2CC2c2ccccc2)CC1",
    "viability, T/C": "102%"
  },
  {
    "compound": "Nc1ccn(C2OC(CO)C(O)C2(F)F)c(=O)n1 (stereo unspecified) + NC1CCC(NC2CC2c2ccccc2)CC1",
    "viability, T/C": "18.5%"
  },
  {
    "compound": "CCc1c2c(nc3ccc(O)cc13)-c1cc3c(c(=O)n1C2)COC(=O)[C@]3(O)CC + NC1CCC(NC2CC2c2ccccc2)CC1",
    "viability, T/C": "15.5%"
  },
  {
    "compound": "COc1cc(C2c3cc4c(cc3C(OC3OC5COC(C)OC5C(O)C3O)C3COC(=O)C23)OCO4)cc(OC)c1O (stereo unspecified) + NC1CC1c1ccc(-c2cccc(O)c2)cc1",
    "viability, T/C": "146%"
  },
  {
    "compound": "Nc1ncn(C2CC(O)C(CO)S2)c(=O)n1 (stereo unspecified) + NC1CC1c1ccc(-c2cccc(O)c2)cc1",
    "viability, T/C": "107%"
  },
  {
    "compound": "O=C(C=Cc1cccc(S(=O)(=O)Nc2ccccc2)c1)NO + NC1CCC(NC2CC2c2ccccc2)CC1",
    "viability, T/C": "102%"
  },
  {
    "compound": "O=C(C=Cc1cccc(S(=O)(=O)Nc2ccccc2)c1)NO + NC1CC1c1ccc(-c2cccc(O)c2)cc1",
    "viability, T/C": "96.8%"
  },
  {
    "compound": "COc1cc(C2c3cc4c(cc3C(OC3OC5COC(C)OC5C(O)C3O)C3COC(=O)C23)OCO4)cc(OC)c1O (stereo unspecified) + NC1CCC(NC2CC2c2ccccc2)CC1",
    "viability, T/C": "111%"
  },
  {
    "compound": "CCc1c2c(nc3ccc(O)cc13)-c1cc3c(c(=O)n1C2)COC(=O)[C@]3(O)CC + NC1CC1c1ccc(-c2cccc(O)c2)cc1",
    "viability, T/C": "1.73%"
  },
  {
    "compound": "Nc1ncn(C2CC(O)C(CO)S2)c(=O)n1 (stereo unspecified) + NC1CCC(NC2CC2c2ccccc2)CC1",
    "viability, T/C": "112%"
  }
]

Data provenance: PubChem BioAssay AID1918933
